The following compounds are shown together with reported growth inhibition values.
Experiment: NCI Yeast Anticancer Drug Screen. Data for the mec2-1 strain (AID 157)
Conditions: S. cerevisiae mec2-1 strain, at 5.0 µM (retest, dose inferred, filed as 0.5), hits give high values
Compounds without any hit were thinned out: in the full panel of roughly 79,000, 15% have a hit. The source made the active and inactive calls. No stated cut-off is given here; in the data, active means growth inhibition above about 70%; inactive means the rest.

compound	property	observed_measurement
Cc1cc[n+](C2=C(Nc3c(C)cccc3C)C(=O)c3ccccc3C2=O)cc1	growth inhibition	5% (inactive)
Cc1cc([N+](=O)[O-])c2ccccc2[n+]1[O-]	growth inhibition	100% (active)
O=C1CN2CCCCC2CN1 (stereo unspecified)	growth inhibition	-43% (inactive)
CNC1C(O)CC(OC2C/C=C(\C)C/C(C)=C/C=C/CCC(C)CNC(=O)/C=C/C=C/C2C)OC1C (stereo unspecified)	growth inhibition	19% (inactive)
N#CC(C#N)=Cc1c(O)ccc2ccccc12	growth inhibition	-2% (inactive)

Field: next compound
**Query** Please report the measured growth inhibition for "[Cl][Sn]([c]1ccccc1)([c]1ccccc1)[c]1ccccc1"
**Result** 99% (active)
